Tested on: SN12C renal
Procedure Text: NCI-60 one-dose screen, 48 h (100 = growth as untreated, 0 = no growth, -100 = all killed)
Conditions: 10 µM unless noted
About 83,000 compounds went through this panel and 20% of them were active in at least one assay; those are over-represented in the sample as a whole.
Measure Name: growth (%)
# output: bare number, implied unit %

Use the examples below as a reference point.
Molecule: COc1cc(OC)c(C2C(Cl)C(=O)N2Nc2ncnc3ccccc23)cc1OC (stereo not given)
Reading: 98.3
--
Molecule: O=c1/c(=C\c2ccc(-c3ccccc3)o2)sc2nc(-c3ccccc3)nn12
Reading: 97.3

What measured growth goes with CCCC(=O)NC(c1cccnc1)c1cc(C)c2cccnc2c1O (stereo not given) ?
45.7

What measured growth goes with CN(C)CCCNc1c2ccccc2nc2c1oc1ccc(Cl)cc12 ?
26.6

What measured growth goes with N[C@@H](Cc1cn(-c2ccnc3ccccc23)nn1)C(=O)O ?
93.2

What measured growth goes with CC1=C(C)C(=O)C(Nc2cccc(C(F)(F)F)c2)=C(Cl)C1=O ?
87.6

What measured growth goes with COc1ccc(C(=O)/C=C/c2ccc(OCc3ccc(Cl)cc3)c(OC)c2)cc1OC ?
76.6

---

System: DU-145 prostate
Procedure Text: NCI-60 one-dose screen, 48 h (100 = growth as untreated, 0 = no growth, -100 = all killed)
Conditions: 10 µM unless noted
The panel holds about 83,000 compounds, 20% with a hit somewhere; the sample as a whole holds those more often.
So basically: growth at 70% or higher? That is 1. Lower than 70%? That is -1.

Would you please look over these solved cases?
Compound: OC1CCN(CCCOc2c3ccccc3nc3c2oc2ccccc23)CC1
Target Desc: DU-145 prostate
Class Assignment: -1
//
Compound: NS(=O)(=O)c1ccc(Nc2nc(Nc3ccccc3)nc(-n3nc(-c4ccccc4)cc3-c3ccccc3)n2)cc1
Target Desc: DU-145 prostate
Class Assignment: -1

Can COc1ccc(/C=N/NC(=O)c2[nH]c3ccc(Br)cc3c2-c2ccccc2)s1 be said to have growth at or above 70%?
-1

---

System: RXF 393 renal
Procedure Text: NCI-60 one-dose screen, 48 h (100 = growth as untreated, 0 = no growth, -100 = all killed)
Conditions: 10 µM unless noted
Method: Cells are grown in 96 well plates and exposed to the test compound for 48 hours. Compounds are tested at a single concentration, which is 10^-5 M for most compounds. The reported endpoint is percent growth (GI% or GIPRCNT), where numbers from 0 - 100% represent growth inhibition, and numbers from -100% - 0 represent cell death. For example, a value of 40 represents 60% growth inhibition. A value of 0 means no net growth occurred over the course of the experiment. […]
Compounds without any hit were thinned out: in the full panel of roughly 83,000, 20% have a hit.
So basically: growth at 60% or higher? That is True. Lower than 60%? That is False.

Molecule: CS(=O)(=O)c1ccc(-c2nc3ccccn3c2-c2nc3ccc([N+](=O)[O-])cc3[nH]2)cc1
Class Assignment: True

Molecule: COc1cc(/C=C/C(=O)c2ccc(C(F)(F)F)cc2)ccc1Oc1nc(NCCO)nc(N2CCOCC2)n1
Class Assignment: True

Molecule: O=C1c2c(c3c4cccnc4[nH]c3c3ccc4ccccc4c23)C(=O)N1CCO
Class Assignment: True

Molecule: CC(C)(C)Nc1nc2c(OCCc3ccccc3)cccn2c1-c1ccc(Cl)cc1
Class Assignment: False

Molecule: Cc1ccc2ccc3ccc(C)nc3c2n1.Cc1ccc2ccc3ccc(C)nc3c2n1.Oc1c(Cl)cc(Cl)c2ccc(CN3CCCCC3)nc12.[Ru]
Class Assignment: False

Molecule: NC(=O)c1cc(-c2ccc3ncnc(N4CCc5cc(F)c(Cl)cc54)c3c2)cnc1N
Class Assignment: False

Can Nc1cc(-c2c[nH]c3ccc(F)cc23)nc2cc(-c3c[nH]c4ccc(F)cc34)nn12 be said to have growth at or above 60%?
True

Can Cc1ccccc1NC(=O)/C=C/c1ccc(OCCOc2ccc3c(C)cc(=O)oc3c2)cc1 be said to have growth at or above 60%?
True

Can C=C1CC[C@H]2[C@@](C)(CCC3OC(c4ccc(OCc5cn(C6CC(OC(C)=O)C(OC(C)=O)C(COC(C)=O)O6)nn5)cc4)OC[C@]32C)[C@@H]1/C=C/C1=CCOC1=O (stereo partly specified) be said to have growth at or above 60%?
True

Can O=C1Nc2cc(Cl)ccc2/C1=C\c1ccc(OCc2ccc(Br)cc2F)cc1 be said to have growth at or above 60%?
False

Can Clc1ccc2c(NCCCN3CCOCC3)c3oc4ccc(Cl)cc4c3nc2c1 be said to have growth at or above 60%?
False

Can CCN1C(=S)N(CC)C2C1NN=C1SC(c3ccccc3)=CC(=O)N12 (stereo unspecified) be said to have growth at or above 60%?
True

Can CCC/C=C/C=C/C(=O)N[C@@H](Cc1cc(F)cc(F)c1)C(=O)N[C@@H]1C(=O)N2CCC[C@H]2C(=O)N2CCCC[C@H]2C(=O)N[C@@H](C)C(=O)N2C[C@H](C)C[C@H]2C(=O)O[C@H]1C be said to have growth at or above 60%?
False

Can Cc1ccc(-c2nc(C(Cl)Cl)nc3cc(-c4ccccc4)nn23)cc1 be said to have growth at or above 60%?
False

Can CCOc1ccc([C@H]2C(C(=O)c3ccc(Cl)cc3)C3(N[C@@H]2c2ccccc2)C(=O)Nc2ccc(Br)cc23)cc1 (stereo partly specified) be said to have growth at or above 60%?
False

Can COc1cccc(NC2=CC(=O)C(C)=C(C)C2=O)c1 be said to have growth at or above 60%?
False

Can O=C(O)CCCCCN1C(=O)/C(=C/c2ccc(O)c(O)c2)SC1=S be said to have growth at or above 60%?
True

Can COc1cc(-c2nc3ccc(-c4nnc(SCC(=O)Nc5ccc(C(=O)/C=C/c6ccc(Cl)cc6)cc5)o4)cc3[nH]2)cc(OC)c1OC be said to have growth at or above 60%?
True

---

System: UO-31 renal
Procedure Text: NCI-60 one-dose screen, 48 h (100 = growth as untreated, 0 = no growth, -100 = all killed)
Conditions: 10 µM unless noted
About 83,000 compounds went through this panel and 20% of them were active in at least one assay; those are over-represented in the sample as a whole.
# note: exactly -10% is not below, so it is F; use T for growth strictly under it

Would you please look over these solved cases?
Structure Notation: COc1ccc(C(=O)/C=C/c2ccc(OCc3ccc(C)cc3)c(OC)c2)cc1OC
Target Desc: UO-31 renal
Class Assignment: F

Structure Notation: CC(C)(C)Nc1nc2c(OCCc3ccccc3)cccn2c1-c1cccc(F)c1
Target Desc: UO-31 renal
Class Assignment: T

Structure Notation: CO/N=C1\CCc2c(sc(NC(=O)c3cccc(C(F)(F)F)c3)c2C(N)=O)C1
Target Desc: UO-31 renal
Class Assignment: T

Structure Notation: CNC(=O)c1cc(-c2ccc(NC(=O)Nc3ccc(N4CCN(C)CC4)c(C(F)(F)F)c3)cc2)nc2cccnc12
Target Desc: UO-31 renal
Class Assignment: T

Structure Notation: Nc1c(C(=O)Nc2ccc(Cl)cc2)sc2nc(-c3cnccn3)cc(-c3cccs3)c12
Target Desc: UO-31 renal
Class Assignment: F

Dear colleague, could you confirm whether growth of OC1CCN(CCCOc2c3ccccc3nc3c2oc2ccccc23)CC1 falls below -10%? Thanks.
T

Dear colleague, could you confirm whether growth of C#Cc1nc(C2=C(C)C(=O)/C(=N/OC(C)=O)C2)cs1 falls below -10%? Thanks.
T

Dear colleague, could you confirm whether growth of COc1ccc(/C=C2\SC(=Nc3cc(C)on3)NC2=O)cc1 falls below -10%? Thanks.
F

Dear colleague, could you confirm whether growth of COC(=O)c1ccc(NC(=S)N2CCc3ccc([N+](=O)[O-])cc3C2)cc1O falls below -10%? Thanks.
F

Dear colleague, could you confirm whether growth of CCOC(=O)c1c(Nc2ccccc2)nn2c(-c3ccco3)c(C#N)cnc12 falls below -10%? Thanks.
F

---

Here the recorded growth is given for each entry.
Tested on: SN12C renal
Procedure Text: NCI-60 one-dose screen, 48 h (100 = growth as untreated, 0 = no growth, -100 = all killed)
Conditions: 10 µM unless noted
Compounds without any hit were thinned out: in the full panel of roughly 83,000, 20% have a hit.
# output: bare number, implied unit %

Use the examples below as a reference point.
Molecule: CCOC(=O)c1c(Nc2ccccc2)nn2c(N)c(C#N)c(-c3ccc(Cl)cc3)nc12
Value Unit: %
growth: 53.1
--
Molecule: NS(=O)(=O)c1ccc(Nc2nc(SCC(=O)c3ccc(Cl)cc3)nc3ccccc23)cc1
Value Unit: %
growth: 88.1

Query growth on SN12C renal for CN(C)c1ccc(/C=c2\sc3nc4ccccc4n3c2=O)cc1
99.2

Query growth on SN12C renal for COc1ccc(NC2=C(Cl)C(=O)C(C)=C(C)C2=O)cc1OC
88.9

Query growth on SN12C renal for C=CCn1c(SCC(=O)c2ccc(Br)cc2)nnc1-c1c[nH]c2ccccc12
95.6
